The measured values listed here are drawn from ChEMBL document CHEMBL1201862.

Test system: SK-MEL-2
assay-notes: NCI tumour cell line growth inhibition, 48 h
The source made the active and inactive calls. Rule as the data show it: active = GI50 up to about 1.1 µM and inactive = higher. Residues, ends and D or L forms follow the SMILES beside them. *: point of attachment. Boc = CC(C)(C)OC(=O)*
Possible outcomes: True for active, False for inactive

{"compound": "CCCCCCCCCC(=O)CC(=O)c1c(O)cc(O)cc1O", "classification": "False"}
{"compound": "Oc1c(N2CCCCC2)cc(-c2cc(N3CCCCC3)c(O)c3ccccc23)c2ccccc12", "classification": "False"}
{"compound": "COC(=O)[C@H](Cc1c[nH]c2ccccc12)NC(=O)OCC1OC(n2cc(C)c(=O)[nH]c2=O)CC1N=[N+]=[N-] (stereo partly specified)", "classification": "False"}
{"compound": "Cc1ccc(Nc2nc(N)nc3c2ncn3C2OC(CO)C(O)C2O)cc1 (stereo unspecified)", "classification": "False"}
{"compound": "Cc1cccc2oc3c(CC(=O)O)cccc3c(=O)c12", "classification": "False"}
{"compound": "Cc1ncc([N+](=O)[O-])n1CCN=[N+]=[N-]", "classification": "False"}
{"compound": "COC(C)(C)CCc1[nH]c2ccccc2c1CC(=O)NCCc1cncn1C", "classification": "False"}
{"compound": "O=c1cc(-c2ccccc2)[nH]c2c(Cl)cccc12", "classification": "False"}
{"compound": "CCCCCCCCCCCCP(=O)(O)OCC(N)C(=O)O (stereo unspecified)", "classification": "False"}
{"compound": "O=C(O)c1cc(-c2ccc3cc(O)c(O)cc3c2)ccc1O", "classification": "False"}
{"compound": "COc1ccc2c(c1)C1Oc3ccccc3CC1CO2 (stereo unspecified)", "classification": "False"}
{"compound": "C=C1C(=O)O[C@@H]2[C@H]1C[C@@H](O)[C@H](C)[C@@](O)(C(=O)/C=C/C)[C@H]2OC(=O)C(C)CC (stereo partly specified)", "classification": "False"}
{"compound": "COC(=O)C(Cc1c[nH]c2ccccc12)NC(=O)C(Cc1c[nH]c2ccccc12)NC(=O)C(Cc1c[nH]c2ccccc12)NC(=O)C(Cc1c[nH]c2ccccc12)NC(=O)C(Cc1c[nH]c2ccccc12)NC(=O)C(Cc1c[nH]c2ccccc12)NC(=O)OC(C)(C)C (stereo unspecified) (Boc-WWWWWW-OMe; configuration not given here)", "classification": "False"}
{"compound": "c1ccc2c(c1)CCc1[nH]c3c(c1-2)-c1ccccc1CC3", "classification": "False"}
{"compound": "CCN1CCCC(Nc2cc(C)nc(NC(=N)Nc3ccc(Cl)c(Cl)c3)n2)C1 (stereo unspecified)", "classification": "False"}
{"compound": "O=C1c2ccccc2CCC1C(O)(C(F)(F)F)C(F)(F)F (stereo unspecified)", "classification": "False"}
{"compound": "O=C1c2ccccc2C(=O)c2[nH]cnc21", "classification": "False"}
{"compound": "O=c1[nH]/c(=C/c2ccc(OCc3ccccc3)cn2)c(=O)[nH]/c1=C/c1ccc(O)cc1", "classification": "False"}
{"compound": "CC(=O)Nc1ccc(OC/C(N)=N/NC(=O)c2ccncc2)cc1", "classification": "False"}
{"compound": "O=C(CC/C(CC(=O)c1ccc(Br)cc1)=N\\O)Nc1ccc(Cl)c(Cl)c1", "classification": "False"}
{"compound": "CSc1nc(=O)c(C#N)c(-c2ccccc2)n1C1OC(COC(C)=O)C(OC(C)=O)C(OC(C)=O)C1OC(C)=O (stereo unspecified)", "classification": "False"}
{"compound": "O=C(c1ccccc1)c1nnc(C(=O)c2ccccc2)nn1", "classification": "False"}
{"compound": "Cc1cccc(-n2c(C)nc3ccc(NC4OC(CO)C(O)C(O)C4O)cc3c2=O)c1 (stereo unspecified)", "classification": "False"}
{"compound": "COc1ccc(C(OCC2OC(n3ccc(NC(=O)c4ccccc4)nc3=O)C(O)C2O)(c2ccccc2)c2ccccc2)cc1 (stereo unspecified)", "classification": "False"}
{"compound": "COc1ccc([S+]([O-])Cc2cc(OC)c(OC)c(OC)c2)cc1 (stereo unspecified)", "classification": "False"}
{"compound": "Cc1cc(C)n(CN(Cn2nc(C)cc2C)C2CCCCC2)n1", "classification": "False"}
{"compound": "CCOC(=O)C(Cc1cn(S(=O)(=O)c2ccccc2)c2ccccc12)(NC(C)=O)C(=O)OCC", "classification": "False"}
{"compound": "N=C(/C=C/c1ccc(-c2cn3cc(/C=C/C(=N)N4CCOCC4)ccc3n2)cc1)N1CCOCC1", "classification": "False"}
{"compound": "CCOC(=O)Oc1cc2c(c(OC)c1OC)-c1ccc(OC)c(=O)cc1C(NC(C)=O)CC2 (stereo unspecified)", "classification": "True"}
{"compound": "O=[N+]([O-])c1ccc(-c2cc(O)c3nc4ccccc4n3c2)cc1", "classification": "False"}
{"compound": "C=Cn1c([N+](=O)[O-])cnc1/C=C/c1ccc(C(=O)OCCN2CCOCC2)cc1", "classification": "False"}

###

Reported GI50 values for a set of molecules
System: MDA-MB-231
assay-notes: NCI tumour cell line growth inhibition, 48 h
Calls of active or inactive are those of the source. Cut-off read from the data, not from the text of the source: active = GI50 up to about 1.1 µM and inactive = higher.

{"molecule": "CO[C@]12C[C@@H](CNC(=O)c3cc(Br)c[nH]3)O[C@H]1NC(=O)N2", "GI50": "> 100 µM (inactive)"}
{"molecule": "O=C(/C=C/c1ccccc1)Nc1ccccc1SCCCCl", "GI50": "11.4 µM (inactive)"}
{"molecule": "COc1cc2c3c([nH]c2c(OC)c1OC)CCN(Cc1ccccc1)C3", "GI50": "32.8 µM (inactive)"}
{"molecule": "OCC1OC(O)C(/N=C\\c2ccc3c(c2)OCO3)C(O)C1O (stereo not given)", "GI50": "> 100 µM (inactive)"}
{"molecule": "Clc1ccc(-c2cn3c(nc4ccccc43)c(/C=C/c3cccs3)n2)cc1", "GI50": "53.7 µM (inactive)"}

###

Test system: NCI-H226
assay-notes: NCI tumour cell line growth inhibition, 48 h
Activity calls are given as the source filed them. Rule as the data show it: active = GI50 up to about 1.1 µM and inactive = higher.
Labels: True for active, False for inactive

{"molecule": "COc1cc(/C=C2/SC(c3ccccc3)N(Cc3ccccc3)C2=O)cc(OC)c1OC (stereo not given)", "classification": "False"}
{"molecule": "CC1(C)[C@H]2CC[C@]1(C)[C@H](OC(=O)NNC(=O)O[C@@H]1C[C@@H]3CC[C@@]1(C)C3(C)C)C2", "classification": "False"}
{"molecule": "COC(=O)c1ccccc1C#CCCCOS(C)(=O)=O", "classification": "False"}
{"molecule": "COc1cc2c(Cc3cc(OCc4ccccc4)ccc3N)nccc2c(OC)c1OC", "classification": "False"}
{"molecule": "O=C(Nc1ccc2ccccc2c1)Nn1cnnc1", "classification": "False"}
{"molecule": "Cc1cc(N=C2C=C(Br)C(=O)C(Br)=C2)cc(CN(CC(=O)O)CC(=O)O)c1O", "classification": "False"}
{"molecule": "N#Cc1ccc(Sc2ccccc2)cc1C#N", "classification": "False"}
{"molecule": "O=C(NC1CCCCC1)N1CCNC1=S", "classification": "False"}
{"molecule": "CC(C)(C)c1ccc2c(c1)CNCCNCc1cc(C(C)(C)C)ccc1OCC1(CO2)COc2ccc(C(C)(C)C)cc2CNCCNCc2cc(C(C)(C)C)ccc2OC1", "classification": "False"}
{"molecule": "COc1cc(/C=C2\\NC(=S)C3Cc4c(OC)c(C)c(OC)c(OC)c4C2N3C)c(OC)c(C)c1OC (stereo not given)", "classification": "False"}
{"molecule": "N#CC(C(=O)CCC(=O)Nc1ccc(Cl)cc1)c1ccccc1Cl (stereo not given)", "classification": "False"}
{"molecule": "O=C(/C=C/c1ccccc1)Nc1ccccc1SCCCCl", "classification": "False"}
{"molecule": "c1nnc(NCNc2nncs2)s1", "classification": "False"}
{"molecule": "COc1ccc2c(c1)C(=O)c1ccc(OC)cc1C2=S", "classification": "False"}
{"molecule": "Cc1nc2c(o1)/C(=N\\c1ccccc1)c1nc(C)oc1/C2=N/c1ccccc1", "classification": "False"}
{"molecule": "COc1ccc2nc3cc(Cl)ccc3c(NCCCN(C)CCCNc3ccc4ncn5c6ccccc6c(=O)c3c45)c2c1", "classification": "True"}
{"molecule": "C[C@H](CCC(=O)NCCS(=O)(=O)O)[C@H]1CC[C@H]2[C@@H]3[C@H](O)C[C@@H]4C[C@H](O)CC[C@]4(C)[C@H]3CC[C@]12C", "classification": "False"}
{"molecule": "CC(C)=C[C@H]1CCC2(OCCO2)[C@]1(C)COCc1ccccc1", "classification": "False"}
{"molecule": "CCOC(=O)C1Sc2ccccc2N=C1C (stereo not given)", "classification": "False"}
{"molecule": "CC(=O)NCCc1c[nH]c2ccc(Cl)cc12", "classification": "False"}
{"molecule": "N#Cc1c(N)c2c(c(-c3ccccc3)c1-c1ccccc1)C(=O)N(N)C2=O", "classification": "False"}
{"molecule": "CCOC(=O)c1c[nH]c2c(Sc3ccccc3)nccc2c1=O", "classification": "False"}
{"molecule": "O=[N+]([O-])c1cc2ncc(-c3ccccc3)c(O)c2cc1/C(Cl)=C/c1ccccc1", "classification": "False"}
{"molecule": "C=C[C@@]1(C)CCC2(O)C(CCC3C2(C)CCC[C@@]3(C)COC(=O)CC(=O)OC)C1 (stereo not given in full)", "classification": "False"}
{"molecule": "O=C1C(Cl)=C(N2CCN(c3ccccn3)CC2)C(=O)c2c(O)ccc(O)c21", "classification": "False"}
{"molecule": "Cc1nn(C(=O)c2ccc(Cl)cc2)c2c1C(c1cccc([N+](=O)[O-])c1)SC(=N)N2 (stereo not given)", "classification": "False"}
{"molecule": "NC(=O)c1nnc2cc(F)c(F)cc2c1N", "classification": "False"}
{"molecule": "COC(=O)[C@]1(c2cc3ccccc3[nH]2)CC2CN(C(=O)OCc3ccccc3)C1C=C2OC (stereo not given in full)", "classification": "False"}
{"molecule": "Cn1ccnc1Oc1ccc(Cl)cc1", "classification": "False"}
{"molecule": "CCN(CC)CCNc1ccc2nnn3c4ccc([N+](=O)[O-])cc4c(=O)c1c23", "classification": "False"}
{"molecule": "CCOC(=O)c1nc2ccccc2nc1NCc1ccc(OC)c(OC)c1", "classification": "False"}
{"molecule": "Cc1ccc(NCC(=O)N2CC(=O)Nc3ccccc32)c(C)c1", "classification": "False"}
{"molecule": "COc1ccc(C2c3cc4c(cc3C(O)C3CCC(=O)N23)OCO4)cc1 (stereo not given)", "classification": "False"}
{"molecule": "N#Cc1ccc(/C=N/NC(=O)CSCC(=O)N/N=C/c2ccc(C#N)cc2)cc1", "classification": "False"}
{"molecule": "Cc1nn(C(=O)Cc2ccccc2)c2c1C(c1ccccc1)SC(=N)N2 (stereo not given)", "classification": "False"}
